- procedure-details: Human Liver Microsomal Stability (Test C)
- Format: in vitro ADME
- stated-conditions: human, liver microsomes
Consider the following molecules; for each one, report its microsomal CLint.
Numbers only, in µL/min/mg.

Answered cases to consult:
molecule	measured-endpoint	endpoint-value
COc1cc(F)c(O[C@H]2CC[C@@](C)(C(=O)O)CC2)cc1C(=O)N[C@@H]1[C@H]2CC[C@H](C2)[C@@H]1C(=O)NCC(C)(C)C [Example 35]	microsomal CLint	14
COc1cc(F)c(O[C@H]2CC[C@@H](C(=O)O)CC2)cc1C(=O)N[C@@H]1[C@H]2CC[C@H](C2)[C@@H]1C(=O)Nc1ccc(C)c(C#N)c1 [Example 19]	microsomal CLint	17
COc1cc(F)c(-c2ccc(C(=O)O)c(O)c2)cc1C(=O)N[C@@H]1[C@H]2CC[C@H](C2)[C@@H]1C(=O)Nc1cccc(S(=O)(=O)C(F)(F)F)c1 [Example 247]	microsomal CLint	14
COc1cc(F)c(O[C@H]2CC[C@@](C)(C(N)=O)CC2)cc1C(=O)N[C@@H]1[C@H]2CC[C@H](C2)[C@@H]1C(=O)NCC(C)(C)C [Example 53]	microsomal CLint	130
COc1cc(F)c(O[C@H]2CC[C@@](C)(C(=O)O)CC2)cc1C(=O)Nc1c(C)cc(C)cc1C(=O)NCC1(C)CCC1 [Example 211]	microsomal CLint	5.2

Take each entry in turn and give its microsomal CLint.
1. COc1cc(F)c(-c2cccc(C[C@@H](C(=O)O)N(C)C)c2)cc1C(=O)N[C@@H]1[C@H]2CC[C@H](C2)[C@@H]1C(=O)Nc1cccc(S(=O)(=O)C(F)(F)F)c1 (racemic) [Example 293]
2. COc1cc(F)c(-c2ccc3c(c2)OC[C@H]3CC(=O)O)cc1C(=O)N[C@@H]1[C@H]2CC[C@H](C2)[C@@H]1C(=O)Nc1cccc(S(=O)(=O)C(F)(F)F)c1 [Example 253]
3. COc1cc(F)c(O[C@H]2CC[C@@](F)(C(=O)O)CC2)cc1C(=O)N[C@@H]1[C@H]2CC[C@H](C2)[C@@H]1C(=O)Nc1cccc(S(=O)(=O)C(F)(F)F)c1 [Example 416]

Reply |
27
24
9.9

---

- target-or-system: human RXFP1 (Homo sapiens)
- Sequence (Q9HBX9 whole entry): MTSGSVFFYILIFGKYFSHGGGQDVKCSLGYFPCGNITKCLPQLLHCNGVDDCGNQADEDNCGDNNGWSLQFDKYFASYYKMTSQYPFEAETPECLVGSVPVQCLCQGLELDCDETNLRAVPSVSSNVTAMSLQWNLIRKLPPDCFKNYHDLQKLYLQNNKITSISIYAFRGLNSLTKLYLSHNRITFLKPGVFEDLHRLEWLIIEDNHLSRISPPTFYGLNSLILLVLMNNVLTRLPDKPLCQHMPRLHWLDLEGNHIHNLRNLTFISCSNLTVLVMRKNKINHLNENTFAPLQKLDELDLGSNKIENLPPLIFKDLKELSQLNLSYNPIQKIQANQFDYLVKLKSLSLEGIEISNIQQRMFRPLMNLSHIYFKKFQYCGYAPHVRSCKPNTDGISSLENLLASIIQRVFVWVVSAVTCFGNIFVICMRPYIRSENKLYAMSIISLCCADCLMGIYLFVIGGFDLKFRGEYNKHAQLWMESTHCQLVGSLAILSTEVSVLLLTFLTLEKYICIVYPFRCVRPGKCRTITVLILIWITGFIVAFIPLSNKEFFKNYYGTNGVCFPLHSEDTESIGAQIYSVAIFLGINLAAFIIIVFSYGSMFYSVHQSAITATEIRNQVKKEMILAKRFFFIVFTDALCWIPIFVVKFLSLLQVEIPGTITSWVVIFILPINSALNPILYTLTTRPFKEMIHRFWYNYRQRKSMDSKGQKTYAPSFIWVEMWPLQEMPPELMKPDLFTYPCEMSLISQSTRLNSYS
- procedure-details: RXFP1 Hu cAMP (Test A)
- Type: cell-based
- Set-up: expressed in transfected cells; host or cells: Jump-In T-REx CHO-K1 cells (ThermoFisher), induced with 10 ng/ml doxycycline for 24 h
- stated-conditions: RXFP1 Hu cAMP; read-out: Test A EC50
pEC50: −log10 of the molar value.
The threshold is inclusive: pEC50 of exactly 6 counts as yes (1); values below receive no (0).

compound	class
COc1cc(F)c(-c2ccc(C(=O)O)cc2F)cc1C(=O)N[C@H]1[C@@H](C(=O)Nc2cccc(S(=O)(=O)C(F)(F)F)c2)[C@@H]2C=C[C@H]1C2 (racemic) [Example 227]	yes (1)
COc1cc(C#N)c(O[C@H]2CC[C@@](C)(C(=O)O)CC2)cc1C(=O)NC1CCC1C(=O)NCC1(C)CCC1 (single isomer, unassigned) [Example 572]	no (0)
COc1cc(C#N)c(O[C@H]2CC[C@@](C)(C(=O)O)CC2)cc1C(=O)N[C@@H]1[C@H]2CC[C@H](C2)[C@@H]1C(=O)NC1(C)CCC1 [Example 90]	yes (1)
COc1cc(F)c(O[C@H]2CC[C@@](CO)(C(=O)O)CC2)cc1C(=O)N[C@@H]1C[C@@H](OC)C[C@@H]1C(=O)NCC(C)(C)C (racemic) [Example 338]	no (0)
COc1cc(F)c(OCc2ccccc2C(=O)O)cc1C(=O)N[C@H]1[C@@H](C(=O)Nc2cccc(S(=O)(=O)C(F)(F)F)c2)[C@@H]2C=C[C@H]1C2 (racemic) [Example 448]	no (0)

Ask | Reported pEC50 at or above 6? COc1cc(F)c(O[C@H]2CC[C@@](C)(C(=O)O)CC2)cc1C(=O)NC1CCN(C(C)=O)CC1C(=O)Nc1cccc(S(=O)(=O)C(F)(F)F)c1 (single isomer, unassigned) [Example 514]
Reply | no (0)

Ask | Reported pEC50 at or above 6? COc1cc(F)c(OCCCCCCC(=O)O)cc1C(=O)N[C@@H]1[C@H]2CC[C@H](C2)[C@@H]1C(=O)Nc1cccc(S(=O)(=O)C(F)(F)F)c1 [Example 436]
Reply | yes (1)

Ask | Reported pEC50 at or above 6? COC[C@]1(C(=O)O)CC[C@H](Oc2cc(C(=O)N[C@@H]3[C@@H]4CC[C@@H](C4)[C@@H]3C(=O)Nc3cccc(S(=O)(=O)C(F)(F)F)c3)c(OC)cc2F)CC1 [Example 480]
Reply | yes (1)
